Reported MBC by item:
- Test system: S. aureus ATCC 29213
- protocolNotes: MIC and MBC testing, broth microdilution
- Format: cell-based, Staphylococcus aureus
- condition: Staphylococcus aureus, ATCC29213; S. aureus ATCC 29213; read-out: MBC
A number alone suffices; assume µg/mL.

| cpdSmiles | measValue |
| --- | --- |
| [H]/N=C(\N)NN=C1CCCc2cc(OCc3ccccc3F)ccc21 | 16 |

Hello, please tell me recorded MBC for this one: `[H]/N=C(\N)NN=C1CCCc2cc(OCCCCCCCC)ccc21` 2

Answer with reported MBC of `[H]/N=C(\N)NN=C1CCCc2cc(OCc3ccccc3Br)ccc21` 8
